Target: urease from Canavalia ensiformis (Canavalia ensiformis, UniProt P07374)
Construct: purchased Sigma
Sequence (P07374 whole entry, looked up): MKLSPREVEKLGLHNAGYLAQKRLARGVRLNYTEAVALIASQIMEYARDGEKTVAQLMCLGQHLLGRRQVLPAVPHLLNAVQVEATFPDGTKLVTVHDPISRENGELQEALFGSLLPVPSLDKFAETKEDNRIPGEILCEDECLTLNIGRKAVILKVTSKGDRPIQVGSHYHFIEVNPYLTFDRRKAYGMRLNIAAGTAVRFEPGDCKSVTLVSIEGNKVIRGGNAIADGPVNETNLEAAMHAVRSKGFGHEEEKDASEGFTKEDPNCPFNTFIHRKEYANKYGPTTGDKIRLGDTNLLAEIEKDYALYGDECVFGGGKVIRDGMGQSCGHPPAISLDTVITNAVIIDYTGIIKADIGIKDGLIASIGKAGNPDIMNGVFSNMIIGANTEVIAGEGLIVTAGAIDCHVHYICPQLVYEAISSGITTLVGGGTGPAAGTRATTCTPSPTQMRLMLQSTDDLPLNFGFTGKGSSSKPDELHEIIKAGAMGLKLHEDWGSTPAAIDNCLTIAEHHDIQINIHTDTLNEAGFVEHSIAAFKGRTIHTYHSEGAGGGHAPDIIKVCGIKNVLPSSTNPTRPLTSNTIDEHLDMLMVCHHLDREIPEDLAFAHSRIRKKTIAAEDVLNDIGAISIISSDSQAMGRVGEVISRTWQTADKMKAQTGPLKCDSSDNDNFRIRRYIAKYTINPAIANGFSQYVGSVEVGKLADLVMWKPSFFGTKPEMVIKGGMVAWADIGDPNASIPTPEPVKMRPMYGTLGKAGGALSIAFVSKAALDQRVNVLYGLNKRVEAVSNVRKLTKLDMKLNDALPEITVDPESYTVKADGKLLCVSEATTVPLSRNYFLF
Assay: Cell-free urease inhibition assay (indophenol method)
Assay type: biochemical
quantity_kind: IC50 (µM)

| smiles_code | quantity_unit | reported_measurement |
| --- | --- | --- |
| C=CC(C)(C)c1[nH]c2c(CC=C(C)C)cc(CC=C(C)C)cc2c1C[C@@H]1NC(=O)[C@H](C)NC1=O | µM | 29.8 |

###

Experiment: MTT cytotoxicity assay, PC-3 cells
Assay type: cell-based
Conditions: human

| smiles_code | IC50 |
| --- | --- |
| C=CC(C)(C)c1[nH]c2c(CC=C(C)C)cc(CC=C(C)C)cc2c1C[C@@H]1NC(=O)[C@H](C)NC1=O | 41.7 µM |
| C=CC(C)(C)c1[nH]c2cc(CC=C(C)C)ccc2c1/C=C1\NC(=O)C(=O)NC1=O | 63.8 µM |
